Target: T1, 4H850-bA
T1 chain: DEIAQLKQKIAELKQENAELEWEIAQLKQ
Experiment: two-hybrid library CCNG1;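 further: natural log of median RNA to DNA barcode read ratio; higher means stronger binding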
Hi, to clarify the labels: yes (1) covers interaction score from -0.1 upward, no (0) covers anything below -0.1.

I'd appreciate it if you could say whether DKNAQLKQKNAELEQEIAELEWKIAQLKQ [4H3974-bA] has interaction score at least equal to -0.1.
no (0)
